target: HLA-A*68:02; experiment: IEDB peptide-MHC binding, purified MHC/competitive/radioactivity; filed as Kd, often an IC50 or EC50 that approximates it; bounds were set here for any values at or beyond the usual limits of such assays; conditions: source organism: Dengue virus 1 Brazil/97-11/1997
Catalogue of pKd readings, one per entry.
Recall that pKd is obtained by taking minus log10 of the concentration measured in molar.

pKd for "NAICSAVPV" ?
8.50

pKd for "GSIGGVFTSV" ?
7.70

pKd for "NTPEGIIPAL" ?
7.69

pKd for "TSHNILVEV" ?
8.13

pKd for "MTTEDMLSV" ?
7.97

###

target: HLA-A*01:01; assay: IEDB peptide-MHC binding, purified MHC/direct/fluorescence; filed as Kd, often an IC50 or EC50 that approximates it; bounds were set here for any values at or beyond the usual limits of such assays; settings: source organism: Vibrio cholerae
REPORTED_METRIC: Kd

Kd for "GLRWHVRAF" ?
≥ 20 µM

###

target: HLA-A*29:02; assay: IEDB peptide-MHC binding, purified MHC/direct/fluorescence; filed as Kd, often an IC50 or EC50 that approximates it; bounds were set here for any values at or beyond the usual limits of such assays; conditions: source organism: Orthohantavirus tulaense
pKd: −log10 of the molar value.
REPORTED_METRIC: pKd

pKd for "VVDALRNIY" ?
≤ 4.70

###

target: HLA-A*30:02; test: IEDB peptide-MHC binding, purified MHC/competitive/radioactivity; filed as Kd, often an IC50 or EC50 that approximates it; bounds were set here for any values at or beyond the usual limits of such assays; conditions: source organism: Dengue virus 1 Brazil/97-11/1997
REPORTED_METRIC: pKd
Recall that pKd is obtained by taking minus log10 of the concentration measured in molar.

pKd for "VSSWEEVPY" ?
5.73

###

target: HLA-A*33:01; test: IEDB peptide-MHC binding, purified MHC/competitive/radioactivity; filed as Kd, often an IC50 or EC50 that approximates it; bounds were set here for any values at or beyond the usual limits of such assays; conditions: source organism: Vaccinia virus WR
REPORTED_METRIC: log10(Kd) (log10 of the value in nM)
Recorded Kd (log10, nM)

Worked cases, answers included:
{"columns": ["SEQUENCE_RECORD", "log10(Kd)"],
 "data": [
  ["TIERIFNAK", 3.30],
  ["LLKYAGLTIK", 4.16]
]}

Please look at the following sequence next.
log10(Kd) for "PLHKYCVNLY" ?
4.16

###

molecular target: HLA-B*07:02; assay: IEDB peptide-MHC binding, purified MHC/competitive/fluorescence; bounds were set here for any values at or beyond the usual limits of such assays; settings: source organism: Zaire ebolavirus
REPORTED_METRIC: IC50 (µM)
Report the value in µM with no unit label.

Find the measured IC50: item "WPVMNHKNK" , target or system HLA-B*07:02.
53.1

###

target: HLA-A*11:01; assay: IEDB peptide-MHC binding, purified MHC/competitive/radioactivity; filed as Kd, often an IC50 or EC50 that approximates it; bounds were set here for any values at or beyond the usual limits of such assays; conditions: source organism: Lymphocytic choriomeningitis virus (strain Armstrong)
REPORTED_METRIC: pKd
Recall that pKd is obtained by taking minus log10 of the concentration measured in molar.

pKd for "VVKWKRDEH" ?
6.73

###

Catalogue of pIC50 readings, one per entry.
biological target: HLA-A*31:01; experiment: IEDB peptide-MHC binding, purified MHC/competitive/fluorescence; bounds were set here for any values at or beyond the usual limits of such assays; conditions: source organism: Homo sapiens
pIC50: −log10 of the molar value.

Worked cases, answers included:
{"columns": ["SEQUENCE_RECORD", "DATA_VALUE"],
 "data": [
  ["ELFARSSDPR", 4.81],
  ["LVTMGTGTFGR", "≤ 4.70"]
]}

Please look at the following sequence next.
pIC50 for "RQSSGSSSSGF" ?
≤ 4.70

###

molecular target: HLA-A*29:02; assay: IEDB peptide-MHC binding, purified MHC/competitive/fluorescence; bounds were set here for any values at or beyond the usual limits of such assays; conditions: source organism: Homo sapiens
pIC50: −log10 of the molar value.
REPORTED_METRIC: pIC50

Worked cases, answers included:
{"columns": ["SEQUENCE_RECORD", "pIC50"],
 "data": [
  ["RQSSGSSSSGF", "≤ 4.70"],
  ["LVTMGTGTFGR", "≤ 4.70"]
]}

pIC50 for "ELFARSSDPR" ?
≤ 4.70

###

target: HLA-B*57:01; test: IEDB peptide-MHC binding, purified MHC/competitive/fluorescence; filed as Kd, often an IC50 or EC50 that approximates it; bounds were set here for any values at or beyond the usual limits of such assays; conditions: source organism: Influenza A virus (A/ruddy turnstone/Delaware/67/1998(H12N4))
pKd: −log10 of the molar value.
REPORTED_METRIC: pKd

pKd for "IVFMWAIHH" ?
≤ 4.70

###

target: HLA-A*02:06; experiment: IEDB peptide-MHC binding, purified MHC/competitive/radioactivity; filed as Kd, often an IC50 or EC50 that approximates it; bounds were set here for any values at or beyond the usual limits of such assays; conditions: source organism: Mammarenavirus machupoense
REPORTED_METRIC: Kd

Find the measured Kd: item "SSWAVHWFS" , target or system HLA-A*02:06.
≥ 46.8 µM

###

target: HLA-B*40:01; assay: IEDB peptide-MHC binding, purified MHC/direct/fluorescence; filed as Kd, often an IC50 or EC50 that approximates it; bounds were set here for any values at or beyond the usual limits of such assays; settings: source organism: Rickettsia sibirica
REPORTED_METRIC: Kd

Kd for "AIKPITDQF" ?
≥ 20 µM

###

target: HLA-B*39:01; assay: IEDB peptide-MHC binding, purified MHC/competitive/fluorescence; filed as Kd, often an IC50 or EC50 that approximates it; bounds were set here for any values at or beyond the usual limits of such assays; details: source organism: Listeria welshimeri serovar 6b str. SLCC5334
REPORTED_METRIC: Kd

Kd for "ELYENKPDV" ?
≥ 20 µM

###

biological target: HLA-B*27:03; experiment: IEDB peptide-MHC binding, purified MHC/competitive/fluorescence; filed as Kd, often an IC50 or EC50 that approximates it; bounds were set here for any values at or beyond the usual limits of such assays; details: source organism: Brucella suis 1330
pKd: −log10 of the molar value.
REPORTED_METRIC: pKd

pKd for "TEWPQLKVA" ?
≤ 4.70

###

target: HLA-B*54:01; assay: IEDB peptide-MHC binding, purified MHC/competitive/radioactivity; filed as Kd, often an IC50 or EC50 that approximates it; bounds were set here for any values at or beyond the usual limits of such assays; details: source organism: Vaccinia virus Copenhagen
REPORTED_METRIC: Kd
# output: numeric value plus its unit

Kd for "LMDSIFVST" ?
5.2 µM

###

target: HLA-B*44:02; test: IEDB peptide-MHC binding, purified MHC/direct/fluorescence; filed as Kd, often an IC50 or EC50 that approximates it; bounds were set here for any values at or beyond the usual limits of such assays; conditions: source organism: Influenza A virus (A/turkey/Minnesota/511/1978(H9N2))
pKd: −log10 of the molar value.
REPORTED_METRIC: pKd

pKd for "DLLENLQAY" ?
≤ 4.70

###

Catalogue of Kd readings, one per entry.
biological target: HLA-A*68:01; test: IEDB peptide-MHC binding, purified MHC/competitive/radioactivity; filed as Kd, often an IC50 or EC50 that approximates it; bounds were set here for any values at or beyond the usual limits of such assays; conditions: source organism: Dengue virus 3 Martinique/1243/1999
Report the value in nM with no unit label.

{"columns": ["SEQUENCE_RECORD", "Kd (nM)"],
 "data": [
  ["ITANPVVTKK", 23.9],
  ["MTIDLDPVIY", 11.9]
]}

Kd for "ATTVITPMLR" ?
47.2

###

molecular target: HLA-B*07:02; assay: IEDB peptide-MHC binding, purified MHC/direct/fluorescence; filed as Kd, often an IC50 or EC50 that approximates it; bounds were set here for any values at or beyond the usual limits of such assays; conditions: source organism: Orthohantavirus sinnombreense
REPORTED_METRIC: Kd

Kd for "FRYKSRCYV" ?
≥ 20 µM

###

biological target: HLA-A*26:01; assay: IEDB peptide-MHC binding, purified MHC/competitive/fluorescence; filed as Kd, often an IC50 or EC50 that approximates it; bounds were set here for any values at or beyond the usual limits of such assays; conditions: source organism: Brucella suis 1330
pKd: −log10 of the molar value.
REPORTED_METRIC: pKd

pKd for "TEWPQLKVA" ?
≤ 4.70
